- METHOD DESCRIPTION: Quantitative high throughput screen for delayed death inhibitors of the malarial parasite plastid, 96 hour incubation (AID 488745); further: nearly all actives have a fitted effect of over 70% in size
- SETTINGS: Plasmodium falciparum growth; series mostly up to 28.7 µM
Results filed as inconclusive are left out. Activity calls are given as the source filed them. The call rests on the fitted dose curve; in most records, active means well fitted inhibition curve with a large enough effect; inconclusive means small, poorly fitted or top-dose-only effect, or effect the other way; inactive means no such curve, though single readings can be large or run the other way.
// allowed return values: y = active, n = inactive

Write down the call the test reported for this molecule. Item: COc1ccccc1NC(=O)Nc1nc(-c2cccnc2)nc2ccccc12 n

Please indicate how the test categorized COc1cc2c(cc1C(F)(F)F)N(C(=O)Nc1cc(F)cc(-c3cccnc3)c1)CC2 . y

Recorded test call requested for NCCCCCCNS(=O)(=O)c1cccc2c(Cl)cccc12 n

Name the outcome recorded for O=Nc1c(-c2c(O)[nH]c3ccccc23)[nH]c2ccccc12 in the assay. y

# outcome recorded in this test, key = O=C(OCCN1CCCCC1)c1c[nH]c2ccccc12 n

Can you look up the reported call for NCCNS(=O)(=O)c1cccc2cnccc12 for me? n

Which outcome was entered for the molecule COc1[nH]c2ccc(F)cc2c1C(=O)OCC1CCN(CCNS(C)(=O)=O)CC1 in this test? y

Hi team, can someone confirm the assay call for CC(N)=NCc1cccc(CN)c1 ? n

Query: recorded result category for S=C(Nc1ccccc1)Nc1nccs1 in this test y

I would be grateful if you could indicate the recorded call for O=C(O)c1cc(=O)c2ccc(Cl)cc2[nH]1 . n

What did the test return for O=S(=O)(NCCNC/C=C/c1ccc(Br)cc1)c1cccc2cnccc12 ? n

Answer briefly: the call reported for CCCn1c(=O)c2[nH]c(-c3ccc(OCC(=O)Nc4ccc(C#N)cc4)cc3)nc2n(CCC)c1=O in this assay. n

For CCCCCCCCCCCCC/C=C/[C@@H](O)[C@@H](N)CO , which call appears in the assay record? n

----------
- METHOD DESCRIPTION: qHTS to identify inhibitors of the type 1 interferon - major histocompatibility complex class I in skeletal muscle: primary screen against the NCATS Mechanism Interrogation Plate v5.0 (MIPE) Libary (AID 1347411); further: nearly all actives have a fitted effect of over 65% in size
- SETTINGS: iHSKM cells + IFN-b, HiBiT-tagged MHC-I luminescence, 24 h; series mostly up to 45.8 µM
Records with an inconclusive call do not appear. The source made the active and inactive calls. Calls follow the shape of the dose curve; as a rule, active = well fitted inhibition curve with a large enough effect; inconclusive = small, poorly fitted or top-dose-only effect; inactive = no such curve, though single readings can be large or run the other way.
The reply should name one outcome from True (active), False (inactive)

Recorded call for COc1ccc2c(c1)CC[C@@H]1[C@@H]2CC[C@]2(C)[C@@H](NCCCCCCN3C(=O)C=CC3=O)CC[C@@H]12 ? False

Which outcome was assigned to COc1ccc(S(=O)(=O)N(CCO)c2ccccc2CN(C)C/C=C/c2ccc(Cl)cc2)cc1 in this test? False

Entry O=C(Nc1cc(Oc2cc(F)c(NC(=O)C3(C(=O)Nc4ccc(F)cc4)CC3)cc2F)ccn1)C1CC1 : call = ? True

What is the recorded call for this compound in the test? C[C@@H]1N=C(N)NC(N(C)C)=N1 False

For C#Cc1cccc(Nc2ncnc3cc4c(cc23)OCCOCCOCCO4)c1 , what call appears in the results of this test? False

I'd appreciate the recorded outcome for Cc1nc2ccc(C(=O)N3CCC4(CC3)CC(=O)c3c(cnn3C(C)C)C4)cc2[nH]1 from this test. False

For this compound, state the assay outcome: CCCC[C@@H](C=O)NC(=O)[C@H](CC(C)C)NC(=O)OCc1ccccc1 False

Query: recorded result category for C=CC(=O)Nc1cc(Nc2nccc(-c3cn(C)c4ccccc34)n2)c(OC)cc1N(C)CCN(C)C in this test True

Name the outcome recorded for Cc1cc(/C=c2/sc3nc4ccccc4n3c2=O)c(C)n1-c1ccccc1 in the assay. False
